Hi there, I'd appreciate the recorded interaction score for every entry that follows.
# Target entity: T1, 4H607-bA
# T1 chain: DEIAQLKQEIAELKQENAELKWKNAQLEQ
# Measurement description: two-hybrid library CCNG1;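 also: natural log of median RNA to DNA barcode read ratio; higher means stronger binding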
Give your answer as a number; write no unit.

Ask | Entry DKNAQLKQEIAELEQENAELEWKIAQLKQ [4H3606-bA] needs its interaction score filled in; supply it.
Reply | -0.936

Ask | Give the reported interaction score for this binder. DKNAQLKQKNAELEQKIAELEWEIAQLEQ [4H4001-bA]
Reply | -1.34

Ask | Entry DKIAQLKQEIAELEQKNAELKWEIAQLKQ [4H2618-bA] needs its interaction score filled in; supply it.
Reply | -1.07

Ask | Give the reported interaction score for this binder. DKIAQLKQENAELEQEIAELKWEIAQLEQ [4H2697-bA]
Reply | -1.17

Ask | Tell me its interaction score given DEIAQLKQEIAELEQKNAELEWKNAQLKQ [4H568-bA] as the entry.
Reply | -1.48

Ask | Name the recorded interaction score of the item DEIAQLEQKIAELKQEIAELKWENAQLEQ [4H331-bA] in your answer.
Reply | -1.42

Ask | Tell me interaction score reported for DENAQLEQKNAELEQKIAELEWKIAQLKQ [4H1446-bA]
Reply | -0.535

Provenance of the data: paper PMC10397247
